Recorded values, source patent US20260102359A1.

Reported Compound Myofibroblast Cytotoxicity Activity for target or system hDMFa myofibroblast cells, by entry.
Counter-ions that a name gives are not always drawn.

# count of solved cases: 5
COMPOUND | MEASURED_VALUE
COc1cc(O)c(C(=O)c2ccccc2)cc1S(=O)(=O)O | ++
Cc1cc(C2CCCCC2)n(O)c(=O)c1 | ++++
Cc1c(S(=O)(=O)[O-])oc2c1C(=O)C(=O)c1c-2ccc2c1CCCC2(C)C.[Na+] [Cmpd 914, Tanshinone IIA---sulfonic sodium] | ++
C=C(c1ccc(C(=O)O)cc1)c1cc2c(cc1C)C(C)(C)CCC2(C)C | ++++
O=C(O)CCCCCCCCC(=O)O.O=C(O)CCCCCCCCC(=O)O [Cmpd 858, sebacate (decanedioate)] | ++

Query :: Give recorded Compound Myofibroblast Cytotoxicity Activity with hDMFa myofibroblast cells for the following compound: O=c1ccc2[n+]([O-])c3ccc(O)cc3oc-2c1 [Cmpd 827, Resazurin sodium salt]
Result :: ++

Query :: Give recorded Compound Myofibroblast Cytotoxicity Activity with hDMFa myofibroblast cells for the following compound: N#CC(c1ccc(Cl)cc1)c1c(Cl)cc(-n2ncc(=O)[nH]c2=O)cc1Cl (stereo not shown)
Result :: +++

Query :: Give recorded Compound Myofibroblast Cytotoxicity Activity with hDMFa myofibroblast cells for the following compound: COc1cc(C(=O)NS(=O)(=O)c2ccccc2C)ccc1Cc1cn(C)c2ccc(NC(=O)OC3CCCC3)cc12
Result :: +++++

Query :: Give recorded Compound Myofibroblast Cytotoxicity Activity with hDMFa myofibroblast cells for the following compound: O=C(O)C=Cc1ccccc1
Result :: ++

Query :: Give recorded Compound Myofibroblast Cytotoxicity Activity with hDMFa myofibroblast cells for the following compound: O=CC[C@H](O)[C@H](O)CO
Result :: ++++

Query :: Give recorded Compound Myofibroblast Cytotoxicity Activity with hDMFa myofibroblast cells for the following compound: Cc1cccc(N(C)C(=S)Oc2ccc3ccccc3c2)c1 [Cmpd 956, Tolnaftate]
Result :: ++++

Query :: Give recorded Compound Myofibroblast Cytotoxicity Activity with hDMFa myofibroblast cells for the following compound: CN(C(=O)c1c(O)c2ccccc2n(C)c1=O)c1ccccc1
Result :: ++

Query :: Give recorded Compound Myofibroblast Cytotoxicity Activity with hDMFa myofibroblast cells for the following compound: COc1cc(Nc2ncc3c(n2)-c2ccc(Cl)cc2C(c2c(F)cccc2OC)=NC3)ccc1C(=O)O
Result :: ++++

====

tested on: hDMFa myofibroblast cells
Counter-ions that a name gives are not always drawn.
READOUT: Compound Myofibroblast Cytotoxicity Activity

# count of solved cases: 8
MOLECULE | MEASURED_VALUE
CC(=O)[C@@]1(O)CC[C@H]2[C@@H]3C[C@H](C)C4=CC(=O)C=C[C@]4(C)[C@@]3(F)[C@@H](O)C[C@@]21C [Cmpd 463, Fluorometholone] | ++
C[C@H](CCC(=O)O)[C@H]1CC[C@H]2[C@@H]3[C@@H](O)C[C@@H]4C[C@H](O)CC[C@]4(C)[C@H]3CC[C@]12C [Cmpd 988, Ursodeoxycholic Acid] | +
O=C([O-])C[C@H](O)C[C@H](O)/C=C/c1c(C2CC2)nc2ccccc2c1-c1ccc(F)cc1.O=C([O-])C[C@H](O)C[C@H](O)/C=C/c1c(C2CC2)nc2ccccc2c1-c1ccc(F)cc1.[Ca+2] [Cmpd 786, Pitavastatin Calcium] | +++
Cc1cn(-c2cc(NC(=O)c3ccc(C)c(Nc4nccc(-c5cnccn5)n4)c3)cc(C(F)(F)F)c2)cn1 [Cmpd 818, Radotinib(IY-5511)] | ++++
CNCCC(Oc1ccc(C(F)(F)F)cc1)c1ccccc1 (centres unmarked) [Cmpd 464, Fluoxetine HCl] | +++
Cc1ccc(C(C)C)cc1O [Cmpd 220, Carvacrol] | ++
CC1CCC(C(C)C)C(O)C1 (racemic) [Cmpd 16, (±)-Menthol] | ++
CN(C)C(=O)C(CCN1CCC(O)(c2ccc(Cl)cc2)CC1)(c1ccccc1)c1ccccc1 [Cmpd 606, Loperamide HCl] | +++

Query :: Give recorded Compound Myofibroblast Cytotoxicity Activity with hDMFa myofibroblast cells for the following molecule: COc1ccccc1N1CCN(CC(O)COc2cccc3ccccc23)CC1 (centres unmarked) [Cmpd 697, Naftopidil]
Result :: +++

Query :: Give recorded Compound Myofibroblast Cytotoxicity Activity with hDMFa myofibroblast cells for the following molecule: O=c1[nH]c(=O)c2[nH]cnc2[nH]1 [Cmpd 1020, xanthine]
Result :: ++

Query :: Give recorded Compound Myofibroblast Cytotoxicity Activity with hDMFa myofibroblast cells for the following molecule: Clc1ccc(C(Cn2ccnc2)OCc2csc3c(Cl)cccc23)c(Cl)c1 (centres unmarked) [Cmpd 860, Sertaconazole nitrate]
Result :: +++++

Query :: Give recorded Compound Myofibroblast Cytotoxicity Activity with hDMFa myofibroblast cells for the following molecule: CC12CCC(CC1=O)C2(C)C (stereo not drawn) [Cmpd 11, (+)-Camphor]
Result :: ++

Query :: Give recorded Compound Myofibroblast Cytotoxicity Activity with hDMFa myofibroblast cells for the following molecule: CC(=O)c1c(C)c2cnc(Nc3ccc(N4CCNCC4)cn3)nc2n(C2CCCC2)c1=O.O=S(=O)(O)CCO [Cmpd 753, Palbociclib (PD0332991) Isethionate]
Result :: +++++

Query :: Give recorded Compound Myofibroblast Cytotoxicity Activity with hDMFa myofibroblast cells for the following molecule: Cc1[nH]c(/C=C2\C(=O)Nc3ccccc32)c(C)c1CCC(=O)O [Cmpd 979, TSU-68 (SU6668, Orantinib)]
Result :: ++
